System: MOLT-4 leukemia
Method: NCI-60 one-dose screen, 48 h
Conditions: 10 µM
The panel holds about 83,000 compounds, 20% with a hit somewhere; the sample as a whole holds those more often. Calls of active or inactive are those of the source. The calls were made as follows: active = growth percent below 10; inactive = the rest.
Possible outcomes: active, inactive

CC(=O)OCCO = inactive
COc1ccc2c(NCCCCCCCCNc3c4ccccc4nc4cc(OC)ccc34)c3ccccc3nc2c1 = active
CCOC(=O)CCCC(=O)OCC = inactive
CN(C)/N=C/c1ccccc1O = inactive
C/C(=N\NC(=O)c1ccccc1N)c1ccccc1O = inactive
CC1=NN(c2ccccc2)C(=O)/C1=C\N1CC(=O)NC1=S = inactive
O=C1C=CC(=O)N1c1ccc(I)cc1Cl = inactive
O=C1c2ccccc2C(=O)c2c1ccc(C(=O)O)c2[N+](=O)[O-] = inactive
Nc1ccc(CC(=O)O)c(N)c1 = inactive
COC(=O)Nc1nc2ccc(C(=O)c3ccc(F)cc3)cc2[nH]1 = active
CSC(=N\N=C\c1ccc(N(C)C)cc1)/N=C/N(C)C = inactive
CC(=O)OCC(=O)[C@@]1(O)CC[C@H]2[C@@H]3CC[C@@H]4C[C@H](O)CC[C@]4(C)[C@H]3C(=O)C[C@@]21C = inactive
NC(=O)c1ccc(N=C(N)N=C(N)N)cc1 = inactive
CC1CCC(C(=O)O)N1 (stereo unspecified) = inactive
CC(C)=C(NC(=O)c1ccccc1)C(=O)O = inactive
Nc1ccc(C(=O)c2ccc(N)c(Br)c2)cc1Br = inactive
O=C(O)c1cccc([N+](=O)[O-])c1 = inactive
O=C(O)CSCSCC(=O)O = inactive
CCCCCCCCCCCCCCCCC1CC(=O)OC1=O (stereo unspecified) = inactive
O=C1C=C(Nc2ccc([N+](=O)[O-])cc2)c2ccccc2C1=O = inactive
OC(c1ccccn1)C(O)c1ccccn1 (stereo unspecified) = inactive
NNc1ccccc1C(=O)O = inactive
C#CC(C)(O)c1ccc(Cl)cc1 (stereo unspecified) = inactive
COc1cc(OC)c2ccc(=O)oc2c1 = inactive
S=c1sc2ccccc2n1CN1CCCCC1 = inactive
CC1OC(Oc2c(-c3ccc(O)c(O)c3)oc3cc(O)cc(O)c3c2=O)C(O)C(O)C1O (stereo unspecified) = inactive
CC1(O)OC(COc2ccc(Cl)cc2)COC1O (stereo unspecified) = inactive
CCN=c1cc2sc3cc(NCC)c(C)cc3nc-2cc1C = active
Cc1cc2ccccc2c(O)c1C#N = inactive
CCOC(=O)c1[nH]c(C)c(C(C)=O)c1C = inactive
CC1CCCCN1C(=S)Nc1ccc(S(=O)(=O)N2CCCCC2)cc1 (stereo unspecified) = inactive
CC(C)(C)n1nc(C2CC2)c(Br)c1NC(=O)c1ccccc1F = inactive
CCNc1nc2c(cnn2C)c(=O)[nH]1 = inactive
CCC(O)CC(CC)CO (stereo unspecified) = inactive
CC(C(=O)O)(C1CCCCC1)C1(O)CCCCC1 (stereo unspecified) = inactive
C=CCOC(=O)C(=O)OCC=C = inactive
O=C(c1ccccc1)C1CCC1 = inactive
CNc1nc(NC)c2cn[nH]c2n1 = inactive
CCCCC1C(=O)N(c2ccccc2)N(c2ccccc2)C1=O = inactive
O=[N+]([O-])c1ccc(O)c(S(=O)(=O)O)c1 = inactive
O=C(O)c1ccnc(Br)c1 = inactive
NC(N)=Nc1cc2ccccc2c2ccccc12 = inactive
S=C1CCCCCN1 = inactive
O=C(Nc1cccc(NC(=O)Nc2cc(C(F)(F)F)ccc2Cl)c1)Nc1cc(C(F)(F)F)ccc1Cl = active
Nc1ncnc2[nH]ncc12 = inactive
O=C(N/N=C/c1ccccc1O)Nc1nn[nH]n1 = inactive
O=c1[nH]nc(SC2CCCCC2)c(=O)[nH]1 = inactive
CSc1[nH]c(=O)ncc1F = inactive
O=C(O)/C=C/c1ccc2c(c1)CCC2 = inactive
COC(=O)C(C)Oc1ccc(OC#N)cc1 (stereo unspecified) = inactive
CC(C)C(C#N)(C(C)C)C(C)C = inactive
O=C(O)C(c1ccccc1)C(O)c1ccccc1 (stereo unspecified) = inactive
OCCN1CCOCC1 = inactive
O=C(CN1CCNCC1)N1CCOCC1 = inactive
c1ccc2c(N3CCCCC3)ncnc2c1 = inactive
CC(=O)OC(OC(C)=O)C1CCCO1 (stereo unspecified) = inactive

----------
Tested on: SNB-19 CNS
Method: NCI-60 one-dose screen, 48 h
Conditions: 10 µM
About 83,000 compounds went through this panel and 20% of them were active in at least one assay; those are over-represented in the sample as a whole. Active and inactive are the calls of the source. How the source made its calls: active means growth percent below 10; inactive means the rest.
Possible outcomes: 1 (active), -1 (inactive)

COc1ccccc1NC(=O)c1cc2cc(Br)ccc2cc1O = -1
COC(=O)c1ccccc1Br = -1
CCN(CC)c1ccc2nc3ccc(=[N+](CC)CC)cc-3oc2c1 = 1
CC(=O)OCCO = -1
CO[C@H]1C[C@@H]2CC[C@@H](C)[C@@](O)(O2)C(=O)C(=O)N2CCCC[C@H]2C(=O)O[C@H]([C@H](C)C[C@@H]2CC[C@@H](O)[C@H](OC)C2)CC(=O)[C@H](C)C=C(C)[C@@H](O)[C@@H](OC)C(=O)[C@H](C)C[C@H](C)/C=C/C=C/C=C1C = -1
O=C(Cc1ccc(OCc2ccccc2)cc1)NCc1ccc2c(c1)OCO2 = -1
CCOC(=O)c1ccc(NC(=S)P(=O)(c2ccccc2)c2ccccc2)cc1 = -1
Cc1cccc(CO)c1 = -1
CC1(C(=O)O)NC(C(=O)O)Cc2c1[nH]c1ccccc21 (stereo not drawn) = -1
COC(=O)Nc1cccc(Cl)c1OC = -1
CC(=O)OC(OC(C)=O)C1CCCO1 (stereo not drawn) = -1
COc1cc(C2c3cc4c(cc3C3OC(=O)C2C3CO)OCO4)cc(OC)c1OC (stereo not drawn) = -1
O=[N+]([O-])c1ccc(CO)cc1 = -1
Cc1cc(=O)n(-c2ccc(F)cc2)[nH]1 = -1
O=C1N(C[P+](c2ccccc2)(c2ccccc2)c2ccccc2)CCCN1C[P+](c1ccccc1)(c1ccccc1)c1ccccc1 = -1
CN(C)c1nc2c([nH]1)c(=O)n(C)c(=O)n2C = -1
c1ccc2c(c1)Sc1ccccc1S2 = -1
Cc1ccc(CCCC(=O)O)c(C)c1 = -1
O=C(OCC(O)C1OC(c2ccccc2)OC(COC(=O)c2ccccc2)C1O)c1ccccc1 (stereo not drawn) = -1
O=C(O)C(c1ccccc1)C(O)c1ccccc1 (stereo not drawn) = -1
Cc1ccc(C(O)C2CC2)cc1 (stereo not drawn) = -1
CCCC1(c2ccccc2)NC(=O)NC1=O (stereo not drawn) = -1
COc1ccccc1N=Nc1c(O)ccc2cc(S(=O)(=O)O)ccc12 = -1
CCOC(=O)c1cc2cccc(OC)c2oc1=O = -1
COc1cc2c(cc1OC)[C@H](C(=O)O)[C@@H](c1ccc(OC(C)C)c(OC)c1)N(C)C2=O = -1
O=S(=O)(O)c1ccc(O)c2ccccc12 = -1
Cc1ccccc1N=C(c1ccccc1)C1C(=O)c2ccccc2C1=O = -1
O=C(O)[C@@H]1[C@H]2C[C@H]3c4[nH]c5ccccc5c4CCN3C[C@@H]2CC[C@@H]1O = -1
N/N=C(/Cc1ccccc1)NNC(N)=S = -1
O=C(O)CCC(NC(=O)OCc1ccccc1)C(=O)O (stereo not drawn) = -1
CCCCCCCCCCC(C)Br (stereo not drawn) = -1
COc1cc(OC)c2ccc(=O)oc2c1 = -1
Cc1cc(C)cc(NCCC#N)c1 = -1
CC(C)=CC(=O)OC(=O)C=C(C)C = -1
Nc1ccc(N=Nc2ccc(O)cc2)c(N)n1 = -1
CN(C)C(C)(C)CC(C)(C)C = -1
CCOC(=O)C/C(C)=N\O = -1
CC12CC3CC1C(C(=O)O2)C3C(=O)O (stereo not drawn) = -1
N#CCCc1ccc(O)cc1 = -1
OCCN1CCOCC1 = -1
CC(=O)/C(Cc1ccccc1)=N/O = -1
c1ccc2c(N3CCCCC3)ncnc2c1 = -1
Nc1ccccc1C(=O)Nc1ccc(Cl)cc1Cl = -1
CC(=O)NC(N)=S = -1
O=C(CCl)N1CCN(C/C=C/c2ccccc2)CC1 = -1
CC(C)=NNC(N)=S = -1
O=[N+]([O-])c1ccccc1S(=O)c1ccccc1[N+](=O)[O-] = -1
Cc1cc2nc(CO)[nH]c2cc1C = -1
Cc1cccc(C(=O)N(C(C)C)C(C)C)c1 = -1
Cc1nc2ccccc2c(C(=O)O)c1O = -1
CCOC(=O)C(O)C(O)C(=O)OCC (stereo not drawn) = -1
C/C(=N\O)C1(O)CCCCC1 = -1
COc1ccc(C2(O)CCCCC2)cc1 = -1

----------
Test system: RPMI-8226 leukemia
Method: NCI-60 one-dose screen, 48 h (100 = growth as untreated, 0 = no growth, -100 = all killed)
Conditions: 10 µM
The panel holds about 83,000 compounds, 20% with a hit somewhere; the sample as a whole holds those more often.
Overview of reported growth across a group of compounds:
Recorded Metric: growth (%)

COC(=O)CCCCC1=CCC2C(=O)C=C(O)C2C1 (stereo unspecified) = 100
COc1ccc(NC(=O)CCl)cc1 = 55.8
O=c1cc(-c2ccccc2)[nH]c2c1CCCC2 = 21.3
Cc1nc2ccccc2c2nnc(SCC(=O)N(Cc3ccccc3)c3ccccc3)n12 = 78.8
O=[N+]([O-])c1ccc(N=Nc2ccccc2)cc1 = 98
COc1ccccc1N=Nc1c(O)ccc2cc(S(=O)(=O)O)ccc12 = 99.6
Cc1cc(=O)n(-c2ccc(F)cc2)[nH]1 = 94.2
O=S(=O)(O)c1cc(O)c2c(N=Cc3ccccc3O)c(S(=O)(=O)O)ccc2c1 = 97.5
CC1(C)Nc2cccc3c(N=Nc4ccc(N=Nc5ccccc5)c5ccccc45)ccc(c23)N1 = 97
COc1cc([C@@H]2c3cc4c(cc3[C@H](O)[C@H]3COC(=O)[C@H]23)OCO4)cc(OC)c1OC = 29.7
COC(=O)c1[nH]c(=O)c(C#N)c(C(=O)OC)c1C(=O)c1ccccc1 = 107

Hey, just so you know, these numbers are from PubChem BioAssay (NCI).
